The reported measurements were obtained from PubChem BioAssay AID248.

T/C overview
# System: L1210 leukemia ip in BDF1 mice, survival T/C
# protocol notes: NCI In Vivo Anticancer Drug Screen. Data for tumor model L1210 Leukemia (intraperitoneal) in B6D2F1 (BDF1) mice
# reported conditions: endpoint: mean survival time; dose: 75.0 mg/kg/injection; schedule: Q04DX003 (ip); vehicle: saline; higher = longer survival
Inconclusive results and toxic doses are left out.
quantity measured: T/C

smiles_representation=COc1cc([C@@H]2c3cc4c(cc3[C@H](SC(=N)N)[C@H]3COC(=O)[C@H]23)OCO4)cc(OC)c1OC assayed_system="L1210 leukemia ip in BDF1 mice, survival T/C" result="105 % of control"
smiles_representation=Cc1cccc(N)[n+]1CCC(=O)O assayed_system="L1210 leukemia ip in BDF1 mice, survival T/C" result="101 % of control"
smiles_representation=CC/C(=N\NS(=O)(=O)c1ccc(C)cc1)C(C)C assayed_system="L1210 leukemia ip in BDF1 mice, survival T/C" result="91 % of control"
smiles_representation=CCN(CC)c1ccc(NC(=S)Nc2ccc(N(CC)CC)cc2)cc1 assayed_system="L1210 leukemia ip in BDF1 mice, survival T/C" result="106 % of control"
smiles_representation=S=C(Nc1ccc(Cl)c(Cl)c1)SCc1ccccc1 assayed_system="L1210 leukemia ip in BDF1 mice, survival T/C" result="101 % of control"
